# key: entry, value: Ratio Ki
species: Mus musculus; experiment: Selectivity ratio of Ki for mouse KOR to Ki for mouse MOR

Worked set:
smiles_notation=CN1CC[C@]23c4c5ccc(O)c4O[C@H]2[C@@H](NC(=O)c2cccnc2)CC[C@@]3(O)[C@H]1C5 observed_property="Ratio Ki" reported="> 14.5"
smiles_notation=COc1ccc2c3c1O[C@H]1[C@@H](NC(=O)c4ccncc4)C=C[C@H]4[C@@H](C2)N(C)CC[C@@]341 observed_property="Ratio Ki" reported="> 2.5"
smiles_notation=CN1CC[C@]23c4c5ccc(O)c4O[C@H]2[C@@H](NC(=O)c2cccnc2)C=C[C@H]3[C@H]1C5 observed_property="Ratio Ki" reported=15.2
smiles_notation=CN1CC[C@]23c4c5ccc(O)c4O[C@H]2[C@@H](NC(=O)c2cccnc2)CC[C@H]3[C@H]1C5 observed_property="Ratio Ki" reported=36.2
smiles_notation=CN1CC[C@]23c4c5ccc(O)c4O[C@H]2[C@@H](NC(=O)c2ccncc2)CC[C@H]3[C@H]1C5 observed_property="Ratio Ki" reported="> 26.8"

What value of Ratio Ki has been reported for the following compound? `CN1CC[C@]23c4c5ccc(O)c4O[C@H]2[C@@H](NC(=O)c2ccncc2)CC[C@@]3(O)[C@H]1C5`
> 14.2

What value of Ratio Ki has been reported for the following compound? `CN1CC[C@]23c4c5ccc(O)c4O[C@H]2[C@@H](NC(=O)c2ccncc2)C=C[C@H]3[C@H]1C5`
39
